assayed.target: human PRMT5 complex enzyme (Homo sapiens, UniProt O14744)
Sequence (O14744 whole entry): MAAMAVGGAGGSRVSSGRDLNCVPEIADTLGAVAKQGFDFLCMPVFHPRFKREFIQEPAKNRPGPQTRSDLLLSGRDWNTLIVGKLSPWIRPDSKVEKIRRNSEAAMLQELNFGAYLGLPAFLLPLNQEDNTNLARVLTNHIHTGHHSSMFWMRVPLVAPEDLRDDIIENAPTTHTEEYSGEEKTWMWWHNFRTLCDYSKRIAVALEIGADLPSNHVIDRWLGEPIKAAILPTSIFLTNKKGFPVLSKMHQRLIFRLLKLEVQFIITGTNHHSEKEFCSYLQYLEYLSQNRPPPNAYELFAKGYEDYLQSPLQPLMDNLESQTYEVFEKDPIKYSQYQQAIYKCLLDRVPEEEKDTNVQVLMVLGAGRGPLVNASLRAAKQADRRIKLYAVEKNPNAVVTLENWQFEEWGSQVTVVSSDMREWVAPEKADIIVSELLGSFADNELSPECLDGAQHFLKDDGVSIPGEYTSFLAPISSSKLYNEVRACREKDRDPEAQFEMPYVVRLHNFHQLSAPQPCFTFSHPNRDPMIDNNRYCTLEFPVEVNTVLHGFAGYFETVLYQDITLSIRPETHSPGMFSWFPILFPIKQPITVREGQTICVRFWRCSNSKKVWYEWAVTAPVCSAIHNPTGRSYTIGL
Sequence (Q9BQA1 whole entry partner): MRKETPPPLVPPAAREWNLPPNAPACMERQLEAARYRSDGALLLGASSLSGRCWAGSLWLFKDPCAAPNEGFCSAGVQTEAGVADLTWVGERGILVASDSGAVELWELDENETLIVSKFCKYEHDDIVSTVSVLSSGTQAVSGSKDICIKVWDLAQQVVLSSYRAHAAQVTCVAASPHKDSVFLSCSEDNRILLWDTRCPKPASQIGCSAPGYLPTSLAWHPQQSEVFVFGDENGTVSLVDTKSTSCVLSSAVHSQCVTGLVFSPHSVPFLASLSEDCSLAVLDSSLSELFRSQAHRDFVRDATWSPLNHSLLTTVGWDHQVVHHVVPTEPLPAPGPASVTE
protocol.details: PRMT5 inhibition study ([3H]SAM / Histone H4 methylation, filter scintillation counting)
Format: biochemical
settings: 30 μM test compound; 120 min at 22° C.; 600 nM [3H]SAM, 250 nM Histone H4 full length; percent inhibition of the control enzyme activity
inhibition at 30 µM below 50% gives 0.0; inhibition at 30 µM at or above it gives 1.0.

Recorded results for 2 compounds are shown here.
{"columns": ["compound", "group.label"],
 "data": [
  ["CCCN[C@H]1C[C@]2(C1)O[C@@H](n1cnc3c(N)ncnc31)[C@H](O)[C@@H]2O", 0.0],
  ["Nc1ncnc2c1ncn2[C@@H]1O[C@]2(C[C@@H](O)C2)[C@@H](O)[C@H]1O", 1.0]
]}

Form field: inhibition at 30 µM at least 50%? Entry: Nc1ncnc2c1ccn2[C@@H]1C[C@]2(C[C@@H](Cc3cccnc3)C2)[C@@H](O)[C@H]1O
1.0

API: above_or_equal(metric=inhibition at 30 µM, cutoff=50%) for item Nc1ncnc2c1ncn2[C@@H]1O[C@@]2(C[C@H]2O)C(O)C1O (stereo partly drawn)
1.0

Identify whether the reported inhibition at 30 µM of the following compound is 50% or greater: NC[C@H]1C[C@]12O[C@@H](n1cnc3c(N)ncnc31)C(O)C2O (stereo partly drawn)
1.0
